Below: a set of entries, each annotated with reported koff.
- TARGET_OR_TEST_SYSTEM: T1, cynomolgus monkey CD137 (cynomolgus monkey, UniProt Q07011 24-186 (human entry), limits assumed)
- T1 construct: Soluble analyte in the Biacore assay; also called cyno CD137
- T1 chain: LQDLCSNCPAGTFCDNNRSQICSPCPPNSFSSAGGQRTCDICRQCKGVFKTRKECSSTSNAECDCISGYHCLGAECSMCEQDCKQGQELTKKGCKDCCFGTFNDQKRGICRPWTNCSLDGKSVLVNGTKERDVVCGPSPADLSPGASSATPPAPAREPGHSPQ
- TEST: SPR Biacore T200, IgG captured on protein A, antigen as analyte, 25 C;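 also: antigens flowed over a CM3 chip for 120 s association, KD derived from ka and kd, running buffer (ACES, NaCl, Tween20, pH 7.4) served as blank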
MEASUREMENT_TYPE: koff

1) dBBDu_189 / dBBDu_L112 (antibody, human IgG1, V domains shown, Tested as IgG (human IgG1 constant region, kappa light chain); also called dBBDu189/L112) VH: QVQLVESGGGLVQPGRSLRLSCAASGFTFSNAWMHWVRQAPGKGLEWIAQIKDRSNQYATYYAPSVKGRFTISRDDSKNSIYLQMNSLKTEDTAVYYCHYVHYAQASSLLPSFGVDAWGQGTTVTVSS VL: DIVMTQSPLSLPVTPGEPASISCTSDQELVHMNRHTYLHWYQQKPGQAPRLLIYKVYNRFPGVPDRFSGSGSGTDFTLKISRVEAEDVGVYYCAQGTSVPFTFGQGTKLEIK: 0.0286 s⁻¹
2) dBBDu_186 / dBBDu_L106 (antibody, human IgG1, V domains shown, Tested as IgG (human IgG1 constant region, kappa light chain); also called dBBDu186/L106) VH: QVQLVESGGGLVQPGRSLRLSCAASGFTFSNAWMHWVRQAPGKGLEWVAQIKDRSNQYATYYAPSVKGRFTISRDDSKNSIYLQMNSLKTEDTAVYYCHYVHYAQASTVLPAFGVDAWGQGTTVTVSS VL: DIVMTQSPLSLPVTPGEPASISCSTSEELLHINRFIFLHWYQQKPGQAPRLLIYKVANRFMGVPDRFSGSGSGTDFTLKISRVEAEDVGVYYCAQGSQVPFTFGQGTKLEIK: 0.00126 s⁻¹
3) dBBDu_189 / dBBDu_L119 (antibody, human IgG1, V domains shown, Tested as IgG (human IgG1 constant region, kappa light chain); also called dBBDu189/L119) VH: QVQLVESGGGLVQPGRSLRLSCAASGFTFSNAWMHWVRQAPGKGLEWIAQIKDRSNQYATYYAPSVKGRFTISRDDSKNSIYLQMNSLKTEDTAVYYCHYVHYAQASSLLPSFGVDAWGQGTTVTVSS VL: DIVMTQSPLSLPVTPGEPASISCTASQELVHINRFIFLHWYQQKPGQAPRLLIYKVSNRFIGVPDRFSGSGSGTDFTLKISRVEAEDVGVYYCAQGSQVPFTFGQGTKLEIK: 0.00122 s⁻¹
4) dBBDu_186 / dBBDu_L100 (antibody, human IgG1, V domains shown, Tested as IgG (human IgG1 constant region, kappa light chain); also called dBBDu186/L100) VH: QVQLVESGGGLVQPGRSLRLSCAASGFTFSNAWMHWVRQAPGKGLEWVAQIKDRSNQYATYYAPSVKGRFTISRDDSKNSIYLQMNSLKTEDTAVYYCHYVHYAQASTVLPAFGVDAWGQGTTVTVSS VL: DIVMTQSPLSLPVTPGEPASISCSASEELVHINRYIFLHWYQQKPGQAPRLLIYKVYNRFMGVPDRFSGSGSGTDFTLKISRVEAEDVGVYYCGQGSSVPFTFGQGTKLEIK: 0.00208 s⁻¹
5) dBBDu_183 / dBBDu_L067 (antibody, human IgG1, V domains shown, Tested as IgG (human IgG1 constant region, kappa light chain); also called dBBDu183/L067) VH: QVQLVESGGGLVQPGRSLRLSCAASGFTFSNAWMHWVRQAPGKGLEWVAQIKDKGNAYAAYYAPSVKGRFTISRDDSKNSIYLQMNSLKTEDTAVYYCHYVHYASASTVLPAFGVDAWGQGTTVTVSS VL: DIVMTQSPLSLPVTPGEPASISCQSSESLVHVNRHTYLHWYQQKPGQAPRLLIYKVYNRFPGVPDRFSGSGSGTDFTLKISRVEAEDVGVYYCAQGTSVPFTFGQGTKLEIK: 0.00813 s⁻¹
6) dBBDu_193 / dBBDu.L132 (antibody, human IgG1, V domains shown, Tested as IgG (human IgG1 constant region, kappa light chain); also called dBBDu193/L132; dBBDu_193/L132) VH: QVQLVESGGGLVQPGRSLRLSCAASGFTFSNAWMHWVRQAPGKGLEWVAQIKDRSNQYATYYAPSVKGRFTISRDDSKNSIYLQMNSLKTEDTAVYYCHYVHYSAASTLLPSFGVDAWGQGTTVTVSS VL: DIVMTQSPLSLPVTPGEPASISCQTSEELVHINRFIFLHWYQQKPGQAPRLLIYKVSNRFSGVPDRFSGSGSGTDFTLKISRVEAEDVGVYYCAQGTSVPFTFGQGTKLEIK: 0.0061 s⁻¹
